Entries annotated with measured cytotoxicity at 10 µM
- protocol.summary: Toxicity liver stage against HepG2, at 10uM
- Format: cell-based
- Parameters: test concentration 10 uM, cell line HepG2-A16-CD81EGFP
- experimental.setup: human, HepG2-A16-CD81EGFP cells; read-out: INHIBITION
Numbers only here, please. The scale is %.

Recorded cytotoxicity at 10 µM, per entry:
Value of cytotoxicity at 10 µM reported for the compound O=C1O[C@@H]2CN(C3CCOCC3)C[C@@H]2N1CCCc1ccc(F)cc1 is 5.77

Value of cytotoxicity at 10 µM reported for the compound CN1CCC(N2CC[C@@H]3[C@@H](CCC(=O)N3CCC3=CCCCC3)C2)CC1 is -6.53

Value of cytotoxicity at 10 µM reported for the compound Cc1cnc(C(=O)N2C[C@H]3CCCC(OCc4cccnc4)[C@H]3C2)cn1 (stereo not given in full) is 3.51

Value of cytotoxicity at 10 µM reported for the compound NC(=O)[C@H]1CCCN1C(=O)c1csc(-c2ccc(C(F)(F)F)cc2)n1 is -0.187

Others:
Value of cytotoxicity at 10 µM reported for the compound CC(C)c1nnc2n1CCN(C(=O)CN(C)Cc1ccccc1)C2 is -5.17

---

- protocol.summary: Toxicity liver stage against HepG2, at 10uM
- Format: cell-based
- Design: test concentration 10 uM, cell line HepG2-A16-CD81EGFP
- experimental.setup: human, HepG2-A16-CD81EGFP cells; read-out: INHIBITION
Entries annotated with measured cytotoxicity at 10 µM
Numbers only here, please. The scale is %.

Value of cytotoxicity at 10 µM reported for the compound CC1CN(CCOc2ccccc2C#N)CCN1Cc1nccn1C (centres undefined) is -10.8

Others:
Value of cytotoxicity at 10 µM reported for the compound CCN1CCN(C2CCN(Cc3noc(C4CC4)n3)CC2)C1=O is -8.69

Value of cytotoxicity at 10 µM reported for the compound CC(SCCC(=O)NC(N)=O)c1ccc(F)cc1F (centres undefined) is 0.936

Value of cytotoxicity at 10 µM reported for the compound CC(C)C(C(=O)NCc1ccccc1-n1cccn1)N(C)C (centres undefined) is -3.17

Value of cytotoxicity at 10 µM reported for the compound Cc1nc(CNC(=O)N(CCCO)C2CCc3ccccc32)oc1C (centres undefined) is -13.5

Value of cytotoxicity at 10 µM reported for the compound CN1C(=O)CC(C(=O)O)C12CCN(Cc1ccc(Cl)c(F)c1)CC2 (centres undefined) is 2.91

Value of cytotoxicity at 10 µM reported for the compound CCCc1nnc(NCCn2nc(C)c(Cl)c2C)o1 is 1.89

Value of cytotoxicity at 10 µM reported for the compound O=C1CC2(CCN(C(=O)c3ccc4c(c3)CCCO4)C2)C(=O)N1 (centres undefined) is 3.67

Value of cytotoxicity at 10 µM reported for the compound O=C(Nc1ccccc1-c1ccccc1)NC1CCC2(C1)OCCO2 (centres undefined) is 8.84

Value of cytotoxicity at 10 µM reported for the compound Cc1noc(C)c1CN1CCc2ncnc(-c3ccccc3)c2CC1 is -89.9

Value of cytotoxicity at 10 µM reported for the compound CC(=O)N1CCCc2cc(Nc3nccn(C)c3=O)ccc21 is -49.4

Value of cytotoxicity at 10 µM reported for the compound CN(C)Cc1nn(C)c2c1CCN(C(=O)c1cnccn1)C2 is -134

Value of cytotoxicity at 10 µM reported for the compound CCCNC(=O)CNC(=O)c1scnc1C is 8.86

Value of cytotoxicity at 10 µM reported for the compound COCCN1C[C@H]2[C@@H](C1)N(C(=O)c1cccc(OC)c1)CC[C@H]2OC is 3.56

Value of cytotoxicity at 10 µM reported for the compound CCS(=O)(=O)N1Cc2cncn2CC(C(=O)NCC2CC2)C1 (centres undefined) is -97.6

Value of cytotoxicity at 10 µM reported for the compound Cc1c(Cl)cccc1S(=O)(=O)N1CCC2(CC1)OCCS2 is 4.19

Value of cytotoxicity at 10 µM reported for the compound CC1(C(=O)N2CCOCC2)CNCCO1 (centres undefined) is 1.2

Value of cytotoxicity at 10 µM reported for the compound O=C(c1ccc(F)cc1)N1C[C@@H]2COC[C@]2(COc2cccnc2)C1 is -100

Value of cytotoxicity at 10 µM reported for the compound CC(C)N1CCOC[C@H]1c1nc(C(C)(C)C)c[nH]1 is -1.99

Value of cytotoxicity at 10 µM reported for the compound Cc1n[nH]c(C)c1CC(=O)N1CCC2(CC1)CN(C)CCN2C is 1.73

Value of cytotoxicity at 10 µM reported for the compound Cc1ccccc1-c1cc(C(=O)NCCN2CCCS2(=O)=O)[nH]n1 is -12.9

Value of cytotoxicity at 10 µM reported for the compound CC1=N[C@@]2(CC[C@@H]3CN(CC(C)C)C[C@@H]32)C(=O)N1 is 6.5

Value of cytotoxicity at 10 µM reported for the compound COc1ccc(OC)c(Nc2nc3c(C)nn(C)c3c(=O)n2C)c1 is -2.73

Value of cytotoxicity at 10 µM reported for the compound CN(C)CC1CN(Cc2coc(-c3ccc(Cl)cc3)n2)CCO1 (centres undefined) is 0.35
